Data provenance is patent US4900748A.

# system name: Acetylcholinesterase (Caudate) (Homo sapiens, UniProt P22303)
# Sequence (P22303 32-614): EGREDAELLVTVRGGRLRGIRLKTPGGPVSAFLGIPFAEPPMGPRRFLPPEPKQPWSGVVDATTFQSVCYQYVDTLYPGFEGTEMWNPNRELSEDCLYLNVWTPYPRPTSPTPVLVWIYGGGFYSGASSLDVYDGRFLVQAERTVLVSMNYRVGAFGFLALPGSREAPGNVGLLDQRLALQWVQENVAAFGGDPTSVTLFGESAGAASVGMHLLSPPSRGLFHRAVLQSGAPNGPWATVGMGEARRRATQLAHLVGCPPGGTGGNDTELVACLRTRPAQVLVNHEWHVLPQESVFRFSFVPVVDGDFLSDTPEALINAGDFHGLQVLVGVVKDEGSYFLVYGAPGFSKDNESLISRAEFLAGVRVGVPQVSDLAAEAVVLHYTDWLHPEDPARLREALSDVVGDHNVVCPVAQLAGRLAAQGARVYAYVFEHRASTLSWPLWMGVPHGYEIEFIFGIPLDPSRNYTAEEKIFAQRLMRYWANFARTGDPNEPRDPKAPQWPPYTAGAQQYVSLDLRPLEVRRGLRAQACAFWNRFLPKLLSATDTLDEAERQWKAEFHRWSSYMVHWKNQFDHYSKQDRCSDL
# assay comment: biochemical
measurement label: IC50 (nM)

compound="CNC(=O)Oc1ccc2c(c1)[C@]1(C)CCN(CCc3ccccc3)[C@@H]1N2C [YU-112, N--phenylethyl physostigmine]" unit_string=nM limit_qualifier== number=191
compound="CN1CC[C@@]2(C)c3cc(OC(=O)NCc4ccccc4)ccc3N(C)[C@@H]12 [YU-69-1, eseroline benzylcarbamate]" unit_string=nM limit_qualifier== number=27
compound="CN1CC[C@@]2(C)c3cc(O)ccc3N(C)[C@@H]12 (relative stereo) [(+/-)eseroline, reference compound]" unit_string=nM limit_qualifier=> number=10000
compound="CN1CC[C@@]2(C)c3cc(O)ccc3N(C)[C@@H]12 [(-)eseroline, (-)-eseroline, reference compound]" unit_string=nM limit_qualifier=> number=10000
compound="CCCCNC(=O)Oc1ccc2c(c1)[C@]1(C)CCN(C)[C@@H]1N2C [YU-120, butylcabamoyl eseroline]" unit_string=nM limit_qualifier== number=20.3
compound="CN1CC[C@@]2(C)c3cc(OC(=O)Nc4ccc(Cl)cc4)ccc3N(C)[C@@H]12 [YU-116, chlorophenyl carbamoyleseroline]" unit_string=nM limit_qualifier== number=448
compound="CN1CC[C@]2(C)c3cc(O)ccc3N(C)[C@H]12 [(+)eseroline, reference compound]" unit_string=nM limit_qualifier=> number=10000

----------
# system name: Butyrylcholinesterase (Plasma) (Homo sapiens, UniProt P06276)
# Sequence (P06276 29-602): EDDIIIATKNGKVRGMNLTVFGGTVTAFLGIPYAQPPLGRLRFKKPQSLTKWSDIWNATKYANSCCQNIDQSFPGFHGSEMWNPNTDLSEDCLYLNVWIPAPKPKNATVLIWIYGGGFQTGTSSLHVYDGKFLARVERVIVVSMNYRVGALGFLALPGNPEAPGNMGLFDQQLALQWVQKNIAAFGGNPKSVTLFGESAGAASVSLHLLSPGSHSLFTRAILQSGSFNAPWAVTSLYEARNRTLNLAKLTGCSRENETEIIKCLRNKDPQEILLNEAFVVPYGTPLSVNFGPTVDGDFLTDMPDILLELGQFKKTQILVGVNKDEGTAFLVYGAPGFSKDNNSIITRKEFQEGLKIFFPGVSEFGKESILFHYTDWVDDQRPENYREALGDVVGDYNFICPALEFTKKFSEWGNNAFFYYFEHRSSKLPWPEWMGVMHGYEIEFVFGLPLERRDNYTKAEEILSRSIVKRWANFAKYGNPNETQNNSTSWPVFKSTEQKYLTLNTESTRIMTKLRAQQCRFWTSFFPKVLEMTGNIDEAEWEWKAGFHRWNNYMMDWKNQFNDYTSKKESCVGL
# assay comment: biochemical
# experimental conditions: read-out: IC50 Butyrylcholinesterase Plasma
measurement label: IC50 (nM)

molecule="CN1CC[C@@]2(C)c3cc(OC(=O)Nc4ccccc4)ccc3N(C)[C@@H]12 [YU-79, eseroline phenylcarbamate]" measurement_label=IC50 number=1300

----------
# system name: Butyrylcholinesterase (Plasma) (Homo sapiens)
# assay comment: biochemical
pIC50: −log10 of the molar value.
Known pIC50 of a selection of compounds
measurement label: pIC50

compound="CN1CC[C@@]2(C)c3cc(O)ccc3N(C)[C@@H]12 [(-)eseroline, (-)-eseroline, reference compound]" system_name="Butyrylcholinesterase (Plasma) (Homo sapiens)" measurement_label=pIC50 limit_qualifier=< number=5.00
compound="CN1CC[C@]2(C)c3cc(O)ccc3N(C)[C@H]12 [(+)eseroline, reference compound]" system_name="Butyrylcholinesterase (Plasma) (Homo sapiens)" measurement_label=pIC50 limit_qualifier=< number=5.00
compound="CN1CC[C@@]2(C)c3cc(OC(=O)NCc4ccccc4)ccc3N(C)[C@@H]12 [YU-69-1, eseroline benzylcarbamate]" system_name="Butyrylcholinesterase (Plasma) (Homo sapiens)" measurement_label=pIC50 limit_qualifier== number=8.57
compound=CCCCNC(=O)Oc1ccc2c(c1)[C@]1(C)CCN(C)[C@@H]1N2C system_name="Butyrylcholinesterase (Plasma) (Homo sapiens)" measurement_label=pIC50 limit_qualifier== number=8.38
compound=CN1CC[C@@]2(C)c3cc(OC(=O)Nc4ccc(Cl)cc4)ccc3N(C)[C@@H]12 system_name="Butyrylcholinesterase (Plasma) (Homo sapiens)" measurement_label=pIC50 limit_qualifier== number=5.40
compound="CCCCCCCCNC(=O)Oc1ccc2c(c1)[C@]1(C)CCN(C)[C@@H]1N2C [YU-71, eseroline octylcarbamate]" system_name="Butyrylcholinesterase (Plasma) (Homo sapiens)" measurement_label=pIC50 limit_qualifier== number=8.44
compound=C=CCN1CC[C@@]2(C)c3cc(OC(=O)NC)ccc3N(C)[C@@H]12 system_name="Butyrylcholinesterase (Plasma) (Homo sapiens)" measurement_label=pIC50 limit_qualifier== number=8.58
compound=COc1ccc(NC(=O)Oc2ccc3c(c2)[C@]2(C)CCN(C)[C@@H]2N3C)cc1 system_name="Butyrylcholinesterase (Plasma) (Homo sapiens)" measurement_label=pIC50 limit_qualifier== number=7.56
compound="CN1CC[C@@]2(C)c3cc(O)ccc3N(C)[C@@H]12 (relative stereo) [(+/-)eseroline, reference compound]" system_name="Butyrylcholinesterase (Plasma) (Homo sapiens)" measurement_label=pIC50 limit_qualifier=< number=5.00
